Molecular target: GPR84 (Homo sapiens (Human), UniProt Q9NQS5)
Sequence (Q9NQS5 whole entry): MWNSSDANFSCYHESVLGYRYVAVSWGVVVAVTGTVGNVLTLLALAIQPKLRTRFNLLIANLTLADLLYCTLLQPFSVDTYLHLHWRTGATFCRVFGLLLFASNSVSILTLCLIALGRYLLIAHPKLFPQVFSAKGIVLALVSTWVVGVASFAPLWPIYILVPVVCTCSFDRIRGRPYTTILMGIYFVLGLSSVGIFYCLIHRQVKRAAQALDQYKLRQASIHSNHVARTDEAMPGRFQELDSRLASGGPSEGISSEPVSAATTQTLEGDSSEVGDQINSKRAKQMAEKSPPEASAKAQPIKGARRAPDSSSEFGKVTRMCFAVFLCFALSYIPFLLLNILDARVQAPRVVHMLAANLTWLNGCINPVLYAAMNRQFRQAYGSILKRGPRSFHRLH
Test: Gai biosensor BRET assay (GPR84-mediated activation of Gai, antagonist mode against agonist ZQ-16)
Settings: HEK293 cells, 200 nmol/L GPR84 agonist ZQ-16, read-out: hGPR84 IC50
MEASUREMENT NAME: IC50

Cc1cc(OCc2ccccn2)ccc1-c1cc(OCC2COCCO2)cc(Cl)n1 (centres unmarked): > 12.5 µM
Cc1cc(OCc2nccs2)cc(=O)n1[C@H](C)c1ccc(C#CC2CC2)cc1: < 5 µM
O=C(CC1CCOCC1)N1CCc2cc(C#CC3CC3)ccc2C1: > 25 µM
Cc1cc(OCC2COCCO2)cc(=O)n1Cc1ccc(C#CC2CC2)cc1 (centres unmarked): < 5 µM
Cc1cc(OCc2ncco2)cc(=O)n1[C@H](C)c1ccc(C#CC2CC2)cc1: < 5 µM

# batch: return IC50 for each of the 3 molecules below
1. CCn1c(-c2ccc(C#CC3CC3)cc2)cc(OCC2COCCO2)cc1=O (centres unmarked)
2. Cc1ccc(-c2ccc3c(c2)OCCn2c-3cc(OCC3COCCO3)nc2=O)cn1 (centres unmarked)
3. Cc1cc(OCc2nccn2C)cc(=O)n1C(C)c1ccc(C#CC2CC2)c(F)c1 (centres unmarked)

Completion:
["10 to 15 µM", "5 to 10 µM", "< 5 µM"]
